meta.source: PubChem BioAssay (NCATS)

test method notes: Primary qHTS for inhibitors of nuclear receptor binding SET domain protein 2 (NSD2) in an RCH-ACV wild type WT cells (2C) (AID 1645877); also: nearly all actives have a fitted effect of over 70% in size
condition details: RCH-ACV (leukaemia line) NSD2 WT (2C) viability, CellTiter-Glo, 72 h; series mostly up to 44.9 µM
Inconclusive results are not listed. Calls of active or inactive are those of the source. Calls follow the shape of the dose curve; as a rule, active = well fitted inhibition curve with a large enough effect; inconclusive = small, poorly fitted or top-dose-only effect; inactive = no such curve, though single readings can be large or run the other way.
Outcomes: active, inactive

compound: COc1ccccc1N1CCN(c2ncnc3n[nH]c(Br)c23)CC1
class: active

compound: CN1CCN(c2ccc(-c3cccc(CN4CCOCC4)c3)cc2NC(=O)c2c[nH]c(=O)cc2C(F)(F)F)CC1
class: inactive

compound: Cc1ccc(C)c(-c2cc(C(F)(F)F)nn2-c2ccc(S(N)(=O)=O)cc2)c1
class: active

compound: COc1ccc(CCCN2CCC(COC(c3ccccc3)c3ccccc3)CC2)cc1
class: active

compound: C=C1C(=O)O[C@@H]2[C@H]3C(C)=CC(=O)C3=C(C)[C@@H](OC(=O)/C(C)=C\C)[C@H](O)[C@@H]12
class: active

compound: COC(=O)Nc1cc(Nc2cc(NC3CC3)c3ncc(C#N)n3n2)c(Cl)c(N2CCN(C)CC2)c1
class: active

compound: C=C1C(=O)O[C@@H]2/C=C(\C)CC/C=C(/C=O)[C@H](OC)[C@@H](OC(=O)C(C)C)[C@@H]12
class: active

compound: CNc1nc(NCc2ccc(NS(C)(=O)=O)cc2Cl)cc(-c2ccccn2)n1
class: active

compound: CCC(CC)(NC(=O)C(C)C)C(=O)N[C@@H](CCCN=C(N)N)C(=O)NC1(C(=O)NC(c2ccc(F)cc2)c2ccc(F)cc2)CCCC1
class: inactive

compound: CN1CCN(S(=O)(=O)c2ccc(-c3cnc(N)c(C(=O)Nc4cccnc4)n3)cc2)CC1
class: active

compound: CC[C@@H](C)Nc1cc(C(=O)NC2CC3CC[C@@H](C2)N3c2ccc(C(=O)C3CC3)cn2)c(C)cc1C(N)=O (stereo partly drawn)
class: active

compound: CNC(=O)c1ccc2c(c1)CCO[C@H]2CCN1CCN(c2ccc(OC)cc2)CC1
class: inactive

compound: Cc1cc(-c2nc3cc(F)ccc3s2)ccc1NC(=O)[C@@H](N)CCCCN
class: active

compound: C/C(=C/C=C\C=C\Cc1cnco1)[C@@H](O)C(C)(C)C(N)=O
class: inactive

compound: Nc1nc(O)c(C2=C3C(=Nc4ccccc43)C(=O)NCC2)[nH]1
class: active

compound: CC1(CO)CC2C(O)C3=C(CC(C)(O)C2C1)C(=O)OC3 (stereo not drawn)
class: inactive

compound: Cc1sc2c(c1C)C(c1ccc(Cl)cc1)=N[C@H](CC(=O)NCCCCNC(=O)COc1cccc3c1C(=O)N([C@H]1CCC(=O)NC1=O)C3=O)c1nnc(C)n1-2
class: active

compound: C=C1C(=O)O[C@@H]2C[C@]3(C)[C@@H](CCC(C)O)[C@@H]3C[C@H]12 (stereo partly drawn)
class: active
